Test system: Trypanosoma cruzi
Test: Antiparasitic activity against Trypanosoma cruzi Y amastigotes infected gamma irradiated L6E9 myoblast
Type: functional, organism-based
Conditions: L6E9, light or radiation study
The entries below come with measured IC50 values attached.
Respond with a number, then the unit of measure.

The measured IC50 associated with Fc1cccc(Oc2ccc(OCCOC3CCCCO3)cc2)c1 (stereo not given) reads 19 µM

The measured IC50 associated with N#CSCCOc1ccc(Oc2ccc(F)cc2)cc1 reads 3.7 µM

The measured IC50 associated with N#CSCCOc1ccc(Oc2cccc(F)c2)cc1 reads 4.3 µM

***
The measured IC50 associated with Fc1ccc(Oc2ccc(OCCOC3CCCCO3)cc2)cc1 (stereo not given) reads 14.4 µM

The measured IC50 associated with N#CSCCOc1ccc(Oc2ccccc2)cc1 reads 12 µM
